test system: Hepatitis C virus; test: Antiviral activity against wild-type Hepatitis C virus genotype 1b N infected in human Huh7 cells; assay type: functional, organism-based, Hepacivirus hominis; settings: genotype 1b strain N, Huh-7
Value Type: EC50

1) CCC[C@H](NC(=O)[C@@H]1[C@H]2CCC[C@H]2CN1C(=O)[C@@H](NC(=O)[C@@H](NC(=O)c1cnccn1)C1CCCCC1)C(C)(C)C)C(=O)C(=O)NC1CC1 [TELAPREVIR]    320 nM
2) COc1ccc2c(O[C@@H]3C[C@H]4C(=O)N[C@]5(C(=O)O)C[C@H]5/C=C\CCCCC[C@H](NC(=O)OC5CCCC5)C(=O)N4C3)cc(-c3csc(NC(C)C)n3)nc2c1 [CILUPREVIR]    1.5 nM
3) CC(C)(C)OC(=O)N[C@H]1CCCCC/C=C\[C@@H]2C[C@@]2(C(=O)NS(=O)(=O)C2CC2)NC(=O)[C@@H]2C[C@@H](OC(=O)N3Cc4cccc(F)c4C3)CN2C1=O [DANOPREVIR]    0.3 nM
